# System: SK-MEL-5 melanoma
# PROCEDURE SUMMARY: NCI-60 one-dose screen, 48 h (100 = growth as untreated, 0 = no growth, -100 = all killed)
# EXPERIMENTAL SETUP: 10 µM unless noted
Compounds without any hit were thinned out: in the full panel of roughly 83,000, 20% have a hit. Activity calls are given as the source filed them. The calls were made as follows: active = growth percent below 10; inactive = the rest.
In this section we review reported growth values for a set of molecules.

[[record]]
molecule = "CN(C)CCCNC(=O)C(c1ccccc1)c1ccccc1"
result = "103% (inactive)"

[[record]]
molecule = "C=C1C(=O)O[C@H]2[C@H]1CC/C(COC(=O)NCc1cc(OC)c(OC)c(OC)c1)=C\\CC[C@@]1(C)O[C@@H]21"
result = "95.2% (inactive)"

[[record]]
molecule = "Clc1nc2ccccc2nc1CI"
result = "83% (inactive)"


In the following, a different molecule is considered.
Please report the recorded growth for Cc1ccnc2nc(C(=O)OCC(=O)Nc3ccc(-c4ccccc4)cc3)nn12 .
105% (inactive)

====

# System: K-562 leukemia
# PROCEDURE SUMMARY: NCI-60 one-dose screen, 48 h
# EXPERIMENTAL SETUP: 10 µM unless noted
The panel holds about 83,000 compounds, 20% with a hit somewhere; the sample as a whole holds those more often. Activity calls are given as the source filed them. Rule for the calls: active = growth percent below 10; inactive = the rest.
Your reply should match one of these outcome classes. active, inactive

Some solved cases for reference:
[[record]]
compound = "CNC(C)=O"
assigned_label = "inactive"

[[record]]
compound = "Cc1cc(Nc2nc(-c3ccc(F)cc3)nc3ccccc23)n[nH]1"
assigned_label = "inactive"


Which outcome did this test record for the compound COc1ccc(-c2cn[nH]c2-c2cc(OC)c3c(c2)OCO3)cc1 ?
inactive

Which outcome did this test record for the compound COc1ccc(OC)c(-c2ccc(-c3ccccc3N)c3[nH]c4ccccc4c23)c1 ?
inactive

Which outcome did this test record for the compound CCn1cc(C(=O)O)c(=O)c2cc(F)c(N3CCN(S(=O)(=O)c4c(C)cc(C)cc4C)CC3)cc21 ?
inactive

Which outcome did this test record for the compound CCN1C(=O)N(CC)C2Nn3c(s/c(=C4\C(=O)N(C5CCCC5)c5ccccc54)c3=O)=NC21 (stereo unspecified) ?
inactive

Which outcome did this test record for the compound CC[C@H](C)[C@H]1NC(=O)[C@@H](N[C@](C)(O)[C@@H](N)CC(C)C)[C@@H](C)OC(=O)[C@H](Cc2ccc(OC)cc2)N(C)C(=O)[C@@H]2CCCN2C(=O)[C@H](CC(C)C)NC(=O)[C@@H](C)C(=O)[C@H](C(C)C)OC(=O)C[C@@H]1O ?
active

====

In this section we review reported growth values for a set of molecules.
# System: OVCAR-4 ovarian
# PROCEDURE SUMMARY: NCI-60 one-dose screen, 48 h (100 = growth as untreated, 0 = no growth, -100 = all killed)
# EXPERIMENTAL SETUP: 10 µM unless noted
# Method: Growth inhibition of the OVCAR-4 human tumor cell line is measured as a screen for anti-cancer activity. Cells are grown in 96 well plates and exposed to the test compound for 48 hours. Compounds are tested at a single concentration, which is 10^-5 M for most compounds. The reported endpoint is percent growth (GI% or GIPRCNT), where numbers from 0 - 100% represent growth inhibition, and numbers from -100% - 0 represent cell death. For example, a value of 40 represents 60% growth inhibition. […]
Compounds without any hit were thinned out: in the full panel of roughly 83,000, 20% have a hit.
Provide only the numeric value, understood in %.

[[record]]
molecule = "COc1ccc(C2=NN(c3ccc(S(N)(=O)=O)cc3)C(c3cn(-c4ccccc4)nc3-c3ccc(Cl)cc3)C2)cc1 (stereo unspecified)"
numeric_readout = 107


Please report the recorded growth for CC(=O)n1cc([C@H]2CC[C@H](c3cn(C(C)=O)c4ccccc34)c3c2[nH]c2ccccc32)c2ccccc21 .
77.7

Please report the recorded growth for Nc1cc2c(cc1N)-c1cc(N)c(N)cc1C2 .
108

Please report the recorded growth for COc1ccc(/C=C/C(=O)c2ccc(B(O)O)cc2)cc1O .
114

Please report the recorded growth for O=Nc1c(-c2c(O)[nH]c3ccc([N+](=O)[O-])cc23)[nH]c2ccc(O)cc12 .
19.7

Please report the recorded growth for CCSc1nnc(Nc2ccc(C(C)C)cc2)s1 .
84

Please report the recorded growth for COc1cc(NS(C)(=O)=O)ccc1Nc1c2ccc([N+](=O)[O-])cc2nc2c(C)cccc12 .
49.1

Please report the recorded growth for NS(=O)(=O)c1ccc(NCC(=O)Nc2ccc(-c3nc4ccccc4s3)cc2)cc1 .
67.2

Please report the recorded growth for COc1ccc(NC(=S)/N=c2\oc3c(OC)cccc3cc2-c2cc3ccccc3[nH]2)cc1 .
56.4
